B1: Pistol ribozyme (parent)
chain: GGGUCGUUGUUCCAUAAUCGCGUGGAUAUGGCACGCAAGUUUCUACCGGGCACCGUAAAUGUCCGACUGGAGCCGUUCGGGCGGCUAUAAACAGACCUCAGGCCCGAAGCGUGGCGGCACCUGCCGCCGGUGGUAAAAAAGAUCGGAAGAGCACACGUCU

variants of: B1; test: aptazyme ON/OFF ratio, guanine; higher = stronger switching; co-transcriptional cleavage with and without guanine
value kind: aptazyme ON/OFF ratio
Please state the value as a number alone, without comment.

Data point: U7A U10G U11C C12U C13A ; aptazyme ON/OFF ratio = 1.3

Data point: U7A U8C G9C U10A U11G C12U ; aptazyme ON/OFF ratio = 1.19

Data point: U7C U8A G9U U10G C12G C13G ; aptazyme ON/OFF ratio = 1.12

Data point: U7G U8C G9C U10G U11G C12G C13A ; aptazyme ON/OFF ratio = 1.06

Data point: U7C U8C U10C U11C C13A ; aptazyme ON/OFF ratio = 1.31

Data point: G9A U10C U11A C12G C13A ; aptazyme ON/OFF ratio = 1.14

Data point: U7G U8A G9U U10C C12A ; aptazyme ON/OFF ratio = 1.2

Data point: U7A U8A G9U U10A C12A C13A ; aptazyme ON/OFF ratio = 1.34

Data point: U7G U8C G9U U10G U11A C12U C13A ; aptazyme ON/OFF ratio = 1.21

Data point: U7A U8C G9U U10G C12G C13A ; aptazyme ON/OFF ratio = 1.19

Data point: U8G G9C C13U ; aptazyme ON/OFF ratio = 1.04

Data point: U7G U8G G9U U10A U11A C12A C13A ; aptazyme ON/OFF ratio = 1.02

Data point: U7A U8A G9C U10C C12A C13U ; aptazyme ON/OFF ratio = 1.04

Data point: U7A U8A G9U U10C U11A C12A C13U ; aptazyme ON/OFF ratio = 1.23

Data point: U7C G9U U10A U11A C12A C13U ; aptazyme ON/OFF ratio = 1.18

Data point: U7A G9C U10G U11A C12U ; aptazyme ON/OFF ratio = 1.04
